Tested on: Mycosphaerella graminicola; Anamorph: Septoria tritici
Measurement description: Leaf Blotch of Wheat (SEPTTR) fungicidal activity on wheat seedlings
Assay type: in vivo
Experimental setup: Zymoseptoria tritici, 72 h; Low Volume, 121.5 g/H; 3 Day Curative; read-out: SEPTTR 3DC disease control
Assay metric: pest or weed control at 121.5 g/ha

Request: Suppose we examine the compound COc1ccnc(C(=O)N[C@@H](C)C(=O)O[C@@H](C)C(O)(c2ccccc2)c2ccccc2)c1OCOC(C)=O [Cmpd 138] ; what pest or weed control at 121.5 g/ha value has been reported?
Result: < 80%

Request: Proceed to CC[C@H](NC(=O)c1nccc(OC)c1OC(C)=O)C(=O)O[C@@H](C)C(c1ccc(F)cc1)c1ccc(F)cc1 [Cmpd 188]
Result: > 80%

Here is the next item to consider.
Request: Recorded pest or weed control at 121.5 g/ha for COc1ccnc(C(=O)N[C@@H](C)C(=O)O[C@@H](C)C(c2ccc(Br)cc2)c2ccc(Br)cc2)c1OC(C)=O [Cmpd 165] , please?
Result: > 80%

* * *

# maps each entry to its pest or weed control at 121.5 g/ha
Tested on: Puccinia triticina; Synonym: Puccinia recondita f sp. tritici
Measurement description: Wheat Brown Rust (PUCCRT) fungicidal activity on wheat seedlings
Type: in vivo
Experimental setup: 72 h; Low Volume, 121.5 g/H; 3 Day Curative; read-out: PUCCRT 3DC disease control

Request: Please state recorded pest or weed control at 121.5 g/ha (tested on Puccinia triticina; Synonym: Puccinia recondita f sp. tritici) of `COc1ccnc(C(=O)N[C@@H](C)C(=O)O[C@@H](C)C(c2ccc(Cl)cc2)c2ccc(Cl)cc2)c1OCOC(C)=O`
Result: > 80%

***
Request: Checklist item: pest or weed control at 121.5 g/ha tested on Puccinia triticina; Synonym: Puccinia recondita f sp. tritici, entry `COc1ccnc(C(=O)N[C@@H](C)C(=O)O[C@@H](C)C(c2cccs2)c2cccs2)c1OCOC(C)=O` , value?
Result: < 80%

Request: Same read-out for `COc1ccnc(C(=O)N[C@@H](C)C(=O)O[C@@H](C)[C@@H](c2ccccc2)c2ccc(C(F)(F)F)cc2)c1OCOC(C)=O` ?
Result: > 80%

Request: Also check `COc1ccnc(C(=O)N[C@@H](C)C(=O)O[C@@H](C)C(c2cccc(Cl)c2)c2cccc(Cl)c2)c1OCOC(C)=O`
Result: < 80%

Request: Quick one: `COc1ccnc(C(=O)N[C@@H](C)C(=O)O[C@@H](C)C(c2ccc(-c3ccccc3)cc2)c2ccc(-c3ccccc3)cc2)c1OC(C)=O`
Result: < 80%

Request: And for `COCCC(=O)Oc1c(OC)ccnc1C(=O)N[C@@H](C)C(=O)O[C@@H](C)C(c1ccc(F)cc1)c1ccc(F)cc1` ?
Result: < 80%

Request: Also `CCOC(c1ccccc1)(c1ccccc1)[C@H](C)OC(=O)[C@H](C)NC(=O)c1nccc(OC)c1OCOC(C)=O` ?
Result: < 80%

Request: Now try `COc1ccnc(C(=O)N[C@@H](C)C(=O)O[C@@H](C)C(c2ccc(C)cc2)c2ccc(C)cc2)c1OCOC(C)=O` .
Result: > 80%

Request: # repeat for `COc1ccnc(C(=O)N[C@@H](C)C(=O)O[C@@H](C)C(c2ccc(C)s2)c2ccc(C)s2)c1OCOC(C)=O`
Result: < 80%

Request: Try this molecule next: `COc1ccnc(C(=O)N[C@@H](C)C(=O)O[C@@H](C)C(c2cccc(Cl)c2)c2cccc(Cl)c2)c1OC(C)=O`
Result: > 80%

Request: Try this molecule too: `COc1ccnc(C(=O)N[C@@H](C)C(=O)O[C@@H](C)C(c2ccc(F)c(C)c2)c2ccc(F)c(C)c2)c1OCOC(C)=O`
Result: < 80%

Request: What do you have for `COc1ccnc(C(=O)N[C@@H](C)C(=O)O[C@@H](C)[C@@H](c2ccccc2)c2ccc(F)cc2)c1OC(C)=O` ?
Result: > 80%

Request: Moving on to `COc1ccnc(C(=O)N[C@@H](C)C(=O)O[C@@H](C)C(c2ccc(F)cc2)c2ccc(F)cc2)c1OC(=O)C1CC1`
Result: < 80%

Request: Then what about the molecule `COc1ccc(C(c2ccc(OC)cc2)[C@H](C)OC(=O)[C@H](C)NC(=O)c2nccc(OC)c2OC(C)=O)cc1` ?
Result: > 80%

* * *

Quick reference for pest or weed control at 121.5 g/ha among some molecules
System: Mycosphaerella graminicola; Anamorph: Septoria tritici
Measurement description: Leaf Blotch of Wheat (SEPTTR) fungicidal activity on wheat seedlings
Assay type: in vivo
Experimental setup: Zymoseptoria tritici, 72 h; Low Volume, 121.5 g/H; 3 Day Curative; read-out: SEPTTR 3DC disease control

Sample records with pest or weed control at 121.5 g/ha:
Request: Given the entry `COc1ccnc(C(=O)N[C@@H](C)C(=O)O[C@@H](C)C(c2ccccc2)c2ccccc2)c1OC(C)=O` , report its measured pest or weed control at 121.5 g/ha.
Result: > 80%

Request: Now consider `COc1ccc(C(c2ccc(OC)cc2)[C@H](C)OC(=O)[C@H](C)NC(=O)c2nccc(OC)c2OCOC(C)=O)cc1` .
Result: > 80%

Request: Then this molecule: `COc1ccc(C(c2ccc(OC)cc2)[C@H](C)OC(=O)[C@H](C)NC(=O)c2nccc(OC)c2OC(C)=O)cc1`
Result: > 80%

Request: Item: `COc1ccnc(C(=O)N[C@@H](C)C(=O)O[C@@H](C)C(c2ccc(-c3ccccc3)cc2)c2ccc(-c3ccccc3)cc2)c1OCOC(C)=O`
Result: < 80%

Request: Follow-up entry: COc1ccnc(C(=O)N[C@@H](C)C(=O)OC(C)C2c3ccccc3-c3ccccc32)c1OC(C)=O (stereo partly drawn)
Result: > 80%

Request: Here is the next molecule: `COc1ccnc(C(=O)N[C@@H](C)C(=O)O[C@@H](C)C(c2ccc(F)cc2F)c2ccc(F)cc2F)c1OCOC(C)=O`
Result: > 80%

New cases:
Request: Tell me the measured pest or weed control at 121.5 g/ha of `COc1ccnc(C(=O)N[C@@H](C)C(=O)O[C@@H](C)C(c2cccs2)c2cccs2)c1OCOC(C)=O` , please.
Result: < 80%

Request: Here is the next molecule: `COc1ccnc(C(=O)NCC(=O)O[C@@H](C)C(c2ccc(F)cc2)c2ccc(F)cc2)c1OC(C)=O`
Result: < 80%

Request: Query `COc1ccnc(C(=O)N[C@@H](C)C(=O)O[C@@H](C)C(c2ccc(F)cc2)c2ccc(F)cc2)c1OCOC(C)=O` next
Result: > 80%

Request: Further, for `COc1ccnc(C(=O)N[C@@H](C)C(=O)O[C@@H](C)C(c2ccc(C)s2)c2ccc(C)s2)c1OCOC(C)=O` ?
Result: < 80%

Request: Field entry: `COc1ccnc(C(=O)N[C@@H](C)C(=O)O[C@@H](C)C(c2ccc(F)cc2)c2ccc(F)cc2)c1OC(=O)C1CC1`
Result: > 80%

Request: Consider next the molecule `COc1ccnc(C(=O)N[C@@H](C)C(=O)O[C@@H](C)C(c2ccc(C)cc2)c2ccc(C)cc2)c1OC(C)=O` in the same way.
Result: > 80%

Request: Again, but for `COc1ccnc(C(=O)N[C@@H](C)C(=O)O[C@@H](C)C(c2ccc(F)cc2)c2ccc(F)cc2)c1OC(C)=O`
Result: > 80%

Request: Also, `COc1ccnc(C(=O)N[C@@H](C)C(=O)O[C@@H](C)C(O)(c2ccc(Cl)c(F)c2)c2ccc(Cl)c(F)c2)c1OCOC(C)=O` please.
Result: > 80%

Request: And what about the molecule `COc1ccnc(C(=O)N[C@H](C(=O)O[C@@H](C)C(c2ccc(F)cc2)c2ccc(F)cc2)C(C)C)c1OC(C)=O` ?
Result: > 80%

Request: Next: `COc1ccnc(C(=O)N[C@@H](C)C(=O)O[C@@H](C)C(c2ccc(F)c(Cl)c2)c2ccc(F)c(Cl)c2)c1OCOC(C)=O`
Result: > 80%

Request: Another: `COc1ccnc(C(=O)N[C@@H](C)C(=O)O[C@@H](C)C(c2ccc(-c3ccccc3)cc2)c2ccc(-c3ccccc3)cc2)c1OC(C)=O`
Result: < 80%

Request: Now give it for `COc1ccnc(C(=O)N[C@@H](C)C(=O)O[C@@H](C)C(c2ccc(F)c(F)c2)c2ccc(F)c(F)c2)c1OC(C)=O` too.
Result: > 80%

Request: Would you mind doing `COc1ccccc1C(c1ccccc1OC)[C@H](C)OC(=O)[C@H](C)NC(=O)c1nccc(OC)c1OCOC(C)=O` as well?
Result: > 80%

Request: Try this molecule next: `CC[C@H](NC(=O)c1nccc(OC)c1OCOC(C)=O)C(=O)O[C@@H](C)C(c1ccc(F)cc1)c1ccc(F)cc1`
Result: > 80%

* * *

Attribute: pest or weed control at 121.5 g/ha
System: Puccinia triticina; Synonym: Puccinia recondita f sp. tritici
Measurement description: Wheat Brown Rust (PUCCRT) fungicidal activity on wheat seedlings
Type: in vivo
Experimental setup: 72 h; Low Volume, 121.5 g/H; 3 Day Curative; read-out: PUCCRT 3DC disease control

Request: Quick one: pest or weed control at 121.5 g/ha of `COc1ccc(C(c2ccc(OC)cc2)[C@H](C)OC(=O)[C@H](C)NC(=O)c2nccc(OC)c2OCOC(C)=O)cc1` ?
Result: > 80%

Request: // query: `COc1ccnc(C(=O)N[C@@H](C)C(=O)O[C@@H](C)C(c2ccc(C)cc2)c2ccc(C)cc2)c1OC(C)=O`
Result: > 80%

Request: And then `COc1ccnc(C(=O)N[C@@H](C)C(=O)O[C@@H](C)C(c2ccc(F)cc2F)c2ccc(F)cc2F)c1OCOC(C)=O` , what is it?
Result: > 80%

Turning to the following compound.
Request: Entry `COc1ccnc(C(=O)N[C@@H](C)C(=O)O[C@@H](C)C(c2ccc(Cl)c(C)c2)c2ccc(Cl)c(C)c2)c1OCOC(C)=O` : reported pest or weed control at 121.5 g/ha = ?
Result: < 80%
